Assayed System: T1, human MSLN-FL-his protein (human, UniProt Q13421 296-580)
T1 construct: also called human MSLN full-length protein; hMSLN-FL-his; not shown: His tag
T1 sequence (Q13421 other isoform, or with tags, fused parts or gaps): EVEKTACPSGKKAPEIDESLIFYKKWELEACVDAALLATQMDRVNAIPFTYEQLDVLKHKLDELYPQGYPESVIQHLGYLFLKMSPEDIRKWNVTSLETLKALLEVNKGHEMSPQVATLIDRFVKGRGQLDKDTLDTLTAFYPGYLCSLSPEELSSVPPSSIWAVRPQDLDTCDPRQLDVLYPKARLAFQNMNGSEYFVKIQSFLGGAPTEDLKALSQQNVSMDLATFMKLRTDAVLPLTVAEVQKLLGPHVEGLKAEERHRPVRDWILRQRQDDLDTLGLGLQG
Assay Name: ELISA, coated antigen; antibody 100 nM
Quantity Kind: OD450
Provide the measurement as a number trailed by its unit.

Fill in OD450 for each of the 3 binders listed.
1. S009-F4-94.15 (antibody, human IgG1, kappa, V domains shown, Human-murine chimeric antibody, human IgG1/kappa constant regions) VH: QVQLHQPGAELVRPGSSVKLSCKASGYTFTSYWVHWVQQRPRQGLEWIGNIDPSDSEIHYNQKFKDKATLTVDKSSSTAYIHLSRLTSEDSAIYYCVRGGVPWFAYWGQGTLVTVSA VL: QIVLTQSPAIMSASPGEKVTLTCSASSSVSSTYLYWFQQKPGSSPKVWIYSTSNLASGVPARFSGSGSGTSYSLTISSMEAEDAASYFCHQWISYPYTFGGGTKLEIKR
2. S009-F6-62.5 (antibody, human IgG1, kappa, V domains shown, Human-murine chimeric antibody, human IgG1/kappa constant regions) VH: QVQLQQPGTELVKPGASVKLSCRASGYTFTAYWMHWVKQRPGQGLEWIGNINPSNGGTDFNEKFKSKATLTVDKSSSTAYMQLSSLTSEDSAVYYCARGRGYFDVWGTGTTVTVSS VL: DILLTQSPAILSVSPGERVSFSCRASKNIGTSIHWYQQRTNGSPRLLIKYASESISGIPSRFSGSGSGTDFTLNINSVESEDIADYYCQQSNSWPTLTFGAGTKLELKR
3. S009-F4-127.10 (antibody, human IgG1, kappa, V domains shown, Human-murine chimeric antibody, human IgG1/kappa constant regions) VH: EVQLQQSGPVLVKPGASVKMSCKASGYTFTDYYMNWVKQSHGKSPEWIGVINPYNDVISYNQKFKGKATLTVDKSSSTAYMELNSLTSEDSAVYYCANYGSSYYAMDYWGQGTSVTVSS VL: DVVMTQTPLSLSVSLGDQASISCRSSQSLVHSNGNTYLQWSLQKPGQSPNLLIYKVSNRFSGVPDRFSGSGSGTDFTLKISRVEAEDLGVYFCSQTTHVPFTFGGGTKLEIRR

Response:
1.9 OD450
3.22 OD450
0.21 OD450
